Biological target: EBOV GP ectodomain residues 1-636 (GPec) (Zaire ebolavirus, strain  …, UniProt Q05320)

| binder | binding result |
| --- | --- |
| 5.6.c3479 (antibody, V domains shown) VH: QVHLVESGGGLVKPGGSLRLSCSVSGFAFSDYYMTWIRQAPGKGLEWVSYISGDGGSIYYADSVKGRFTISRDNAKKSLYLQLNSLRADDTAVYYCARDRCDRDQLLCYYYYGMDVWGQGTTVTVSS VL: QSVLTQPPSVSAAPGQKVTISCSGSSSNIGNNYVSWYQQLPGTAPKLLIYDNNKRPSGIPDRFSGSKSGTSATLDITGLQTGDEADYYCGTWDNSLIAGVFGGGTKLTVL | binds |
| 5.6.c2972 (antibody, V domains shown) VH: QVQLQESGPGLVKPSQTLSLTCAVSGGSIRSDDNYWSWIRQPPGKGLEWIGYIYHRGSTYYNPSLKNRVKISVDTSKNQFSLKLSSVTAADTAVYYCARDRIQVVPDGIVHYYYGMDVWGQGTTVTVSS VL: QSVLTQPPSVSAAPGQKVTISCSGSSSNIGNNYVSWYQQLPGTAPKLLIYDNNKRPSGIPDRFSGSKSGTSATLGITGLQTGDEADYYCGTWDNNLSAWVFGGGTKLTVL | binds |

Data credit: paper PMC6908968
